Test system: MS2 coat protein
EXPERIMENTAL_PROTOCOL: apparent KD of MS2 coat protein; designed switch direction (-1 OFF switch, 1 ON switch): -1; higher = weaker reporter binding
CONDITION_LABEL: input ligand: FMN 200 uM
Label yes (1) when apparent KD of MS2 coat protein is at or above 30 nM; anything below gets no (0).

Some solved cases for reference:
1. AGCUGUGGCCGAGGAUAUCACGAACCAUGGAAAACCAUGGAAACUCUACAUGAGGAUCACCCAUGUGAGAAGGCGGUCUCAGCA [Eli eng2 - 022] (Eterna round: R96, puzzle: Exclusion NG 2); yes (1)
2. CUCUGCACGCUGCGGUCCUACAUGAGGAUCACCCAUGUGGUCUGGUGGCGUGGGUCGCCGGACUUGGCUCGUCUUGA [salish99_S_TOV1_R5_046] (Eterna round: R97, puzzle: Sensor, turn-off variant 1); no (0)
3. GCCUUACAUGAGGAUCACCCAUGUCAGGAUAUCGUUCAAGAUCUGACCUUAGAUCGAUCGAGAAGGGACUGGAU [Eternabot (L1) Solution 39] (Eterna round: R97, puzzle: Exclusion 1); no (0)
4. CCUCGACAUGAGGAUCACCCAUGUGAGGAUAUGGCCUGUAUGGCGUGAGCUGAAUCAAUCAGAAGGCGCGUGGG [salish99_ex1_r4_054] (Eterna round: R97, puzzle: Exclusion 1); yes (1)

Task item: Entry UACCAGGUUCAGGAUAUGCCCUCGAAGAGAGGCGCAGAAGGGAACACAUGAGGAUCACCCAUGUCAGCCGCUUC [Eternabot (Original) Solution 45] (Eterna round: R97, puzzle: Exclusion 6) : is its apparent KD of MS2 coat protein no less than 30 nM?
Reply: no (0)
